# System: 5637
# Assay explanation: Cell proliferation Ex.3
# Type: cell-based
# Measurement conditions: 5637, 120 h
pIC50: −log10 of the molar value.
Observed property: pIC50

Exercise: Which pIC50 is listed for C#C[C@]1(CO)O[C@@H](n2cc(F)c(N)nc2=O)C[C@@H]1O ?
Solution: < 5.00

----------
# System: cancer cell lines
# Assay explanation: Cancer cell proliferation activity of representative nucleosides, CellTiterGlo 72 h (Example 7, Tables 8 and 9)
# Type: cell-based
# Measurement conditions: Homo sapiens, MINO, 72 h, 72 h (Table 9)
# Method: Dose response relationships on cell proliferation was assessed for representative nucleosides on cancer cell lines. […] After incubation for 72 h at 37° C. at 5% or 10% CO2 dependent on the medium, cell plates were equilibrated to room temperature for one hour, CellTiterGlo reagent (Promega) was added and luminescence was measured approximately an hour later using a luminometer. […]
Provide the reported pIC50 of each item.
Give only the number. pIC50 is defined as minus log10 of concentration in molar units.

Exercise: Lab request: please report pIC50 under test system cancer cell lines for Cc1cn([C@H]2C[C@H](O)[C@@](C#N)(CO)O2)c(=O)[nH]c1=O
Solution: 5.41

Exercise: Same lookup for Nc1nc(=O)n([C@@H]2C=C[C@H](CO)O2)cc1F [Elvucitabine, reference compound] , please.
Solution: 5.31

Exercise: Input Nc1ccn([C@H]2C[C@H](O)[C@](CO)(CF)O2)c(=O)n1
Solution: 7.22

Exercise: Queued: C#C[C@]1(CO)O[C@@H](n2cnc3c(N)nc(F)nc32)C[C@@H]1O [Islatravir (EFdA), Islatravir, reference compound]
Solution: 5.87

----------
# Test system: cancer cell lines
# Assay explanation: Cancer cell proliferation activity of representative nucleosides, CellTiterGlo 72 h (Example 7, Tables 8 and 9)
# Format: cell-based
# Measurement conditions: Homo sapiens, 22Rv1, 72 h, 22RV1, 72 h (Table 9)
Observed property: pIC50
Please treat pIC50 as minus the base-10 logarithm of the molar concentration.

Exercise: Recorded pIC50 of Cc1cn([C@H]2C[C@H](O)[C@@](C#N)(CO)O2)c(=O)[nH]c1=O , please.
Solution: 5.97

Exercise: Input Nc1ccn([C@H]2C[C@H](O)[C@](CO)(CF)O2)c(=O)n1
Solution: 5.88

----------
# Test system: cancer cell lines
# Assay explanation: Cancer cell proliferation activity of representative nucleosides, CellTiterGlo 72 h (Example 7, Tables 8 and 9)
# Type: cell-based
# Measurement conditions: Homo sapiens, OVCAR-3, 72 h, OVCAR3, ovary, 72 h
Observed property: IC50 (µM)
Give your result in µM as a bare value.

Exercise: Which IC50 is reported for this molecule? C#C[C@]1(CO)O[C@@H](n2cc(F)c(N)nc2=O)C[C@@H]1O [compound 9]
Solution: 5.6

Exercise: Then what about the molecule C[C@]1(CO)O[C@@H](n2ccc(N)nc2=O)C[C@@H]1O [compound 30] ?
Solution: 0.38

Exercise: Same question for C#C[C@]1(CO)O[C@@H](n2ccc(N)nc2=O)C[C@@H]1O [compound 7] please.
Solution: 2.39

----------
# Test system: H4
# Assay explanation: Cell proliferation CellTiterGlo Ex.2
# Type: cell-based
# Measurement conditions: H4 (Brain), 72 h
pIC50: −log10 of the molar value.
Observed property: pIC50

Exercise: What pIC50 value was documented for this compound, C#C[C@]1(CO)O[C@@H](n2cnc3c(=O)[nH]c(N)nc32)C[C@@H]1O ?
Solution: < 5.00

Source listed as patent US20230293526A1.
